Numbers sourced from patent US20130330324A1.

Reported SK-Br-3 proliferation % inhibition at 10 µg/ml IgG is given for each of the following binders.
Target: Human HER3, endogenous, on human cancer cell lines (human, UniProt P21860 20-1342)
Experiment: cell-based or functional assay
The figure you give is taken to be in %; do not add the unit.

Reference set (4 entries):
Binder	Value measured
MOR10703 (antibody, human IgG1, kappa, V domains shown, tested as IgG) VH: EVQLLESGGGLVQPGGSLRLSCAASGFTFSSYAMSWVRQAPGKGLEWVSAINSQGKSTYYADSVKGRFTISRDNSKNTLYLQMNSLRAEDTAVYYCARWGDEGFDIWGQGTLVTVSS VL: DIQMTQSPSSLSASVGDRVTITCRASQGISNWLAWYQQKPGKAPKLLIYGASSLQSGVPSRFSGSGSGTDFTLTISSLQPEDFATYYCQQYSSFPTTFGQGTKVEIKR	35
MOR09824 (antibody, human IgG1, kappa, V domains shown, tested as IgG) VH: QVQLVESGGGLVQPGGSLRLSCAASGFTFSSYAMSWVRQAPGKGLEWVSVISAWGHVKYYADSVKGRFTISRDNSKNTLYLQMNSLRAEDTAVYYCARWGDEGFDIWGQGTLVTVSS VL: DIQMTQSPSSLSASVGDRVTITCRASQGISNWLAWYQQKPGKAPKLLIYGASSLQSGVPSRFSGSGSGTDFTLTISSLQPEDFAVYYCQQYSSFPTTFGQGTKVEIKR	33
MOR09974 (antibody, human IgG1, kappa, V domains shown, tested as IgG) VH: QVQLVESGGGLVQPGGSLRLSCAASGFTFSSYAMSWVRQAPGKGLEWVSVINPSGNFTNYADSVKGRFTISRDNSKNTLYLQMNSLRAEDTAVYYCARWGDEGFDIWGQGTLVTVSS VL: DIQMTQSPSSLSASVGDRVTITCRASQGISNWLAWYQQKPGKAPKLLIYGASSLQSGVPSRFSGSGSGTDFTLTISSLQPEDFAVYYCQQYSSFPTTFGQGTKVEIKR	35
MOR09823 (antibody, human IgG1, kappa, V domains shown, tested as IgG) VH: QVQLVESGGGLVQPGGSLRLSCAASGFTFSSYAMSWVRQAPGKGLEWVSVTGAVGRTYYPDSVKGRFTISRDNSKNTLYLQMNSLRAEDTAVYYCARWGDEGFDIWGQGTLVTVSS VL: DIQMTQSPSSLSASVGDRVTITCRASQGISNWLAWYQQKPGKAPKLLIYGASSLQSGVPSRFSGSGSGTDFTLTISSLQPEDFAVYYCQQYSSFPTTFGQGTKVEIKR	39

QUERY: Could you share which SK-Br-3 proliferation % inhibition at 10 µg/ml IgG value was measured for MOR09825 (antibody, human IgG1, kappa, V domains shown, tested as IgG) VH: QVQLVESGGGLVQPGGSLRLSCAASGFTFSSYAMSWVRQAPGKGLEWVSAINSQGKSTYYADSVKGRFTISRDNSKNTLYLQMNSLRAEDTAVYYCARWGDEGFDIWGQGTLVTVSS VL: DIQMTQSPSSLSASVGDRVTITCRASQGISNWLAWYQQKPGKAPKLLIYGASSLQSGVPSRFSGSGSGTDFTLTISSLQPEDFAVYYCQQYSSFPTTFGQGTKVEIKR ?
RESULT: 41
